Catalogue of compounds with associated IC50 at 72 h
assayDetails: Antiproliferative activity against human PIG1 cells assessed as cell growth inhibition incubated for 72 hrs by CCK8 assay
Assay type: toxicity, cell-based
Answer format reminder: number followed by unit.

Answered cases to consult:
Item CCCNCC(O)COc1ccc(C(=O)CCc2ccccc2)cc1 (stereo unspecified) has what recorded IC50 at 72 h?
26.8 µM

Item CCCNCC(O)COc1ccccc1CCCc1ccccc1 (stereo unspecified) has what recorded IC50 at 72 h?
15.7 µM

Item `O=C(CCCc1ccccc1)c1c(OCCCN2CCCC2)ccc2ccccc12` has what recorded IC50 at 72 h?
7.8 µM

Item `C#CCNCCCOc1ccc2ccccc2c1C(=O)CCCc1ccccc1` has what recorded IC50 at 72 h?
16 µM

Item `CCCNCCCOc1ccccc1C(=O)CCc1ccccc1` has what recorded IC50 at 72 h?
66.4 µM

Others:
Item CCCNCC(O)COc1ccccc1C(=O)CCc1ccccc1 (stereo unspecified) has what recorded IC50 at 72 h?
56 µM

---

assayDetails: Antiproliferative activity against human HL7702 cells assessed as cell growth inhibition incubated for 72 hrs by CCK8 assay
Format: toxicity, cell-based
conditionSet: HL7702 (L02) cells
Please assign not satisfied whenever IC50 at 72 h is at or above 50 µM, and satisfied whenever it is below.

Problem: For the compound `Cc1cncc(COc2ccc3ccccc3c2C(=O)CCCc2ccccc2)c1` , is IC50 at 72 h under 50 µM?
not satisfied

Switching to the query record.
Problem: For the compound `CCC(C)(C)NCCCOc1ccc2ccccc2c1C(=O)CCCc1ccccc1` , is IC50 at 72 h under 50 µM?
satisfied

---

assayDetails: Antiproliferative activity against human CM2005.1 cells assessed as cell growth inhibition incubated for 72 hrs by CCK8 assay
Format: functional, cell-based
conditionSet: CM2005.1, 72 h
Catalogue of compounds with associated IC50
Write the value in µM as a bare number.

Answered cases to consult:
Item CCCNCC(O)COc1ccccc1C(=O)Cc1ccccc1 (centres undefined) has what recorded IC50?
60

Item CCCCCC(O)COc1ccccc1C(=O)CCc1ccccc1 (centres undefined) has what recorded IC50?
46.3

Item `C=CC(=O)NCCCOc1ccc2ccccc2c1C(=O)CCCc1ccccc1` has what recorded IC50?
36.9

Item `CCCNCCCOc1cc2ccccc2cc1C(=O)CCCc1ccccc1` has what recorded IC50?
6.6

Item `CCCNCCCOc1c(C(=O)CCCc2ccccc2)ccc2ccccc12` has what recorded IC50?
11.7

Item `O=C(CCCc1ccccc1)c1c(OCCCN2CCNCC2)ccc2ccccc12` has what recorded IC50?
1

Item `CCCCNCCCOc1ccccc1C(=O)CCCc1ccccc1` has what recorded IC50?
5.4

Item `CCCNCCCOc1cc2c(cc1C(=O)CCCc1ccccc1)OCO2` has what recorded IC50?
6.8

Consider now this further compound.
Item `O=C(CCCc1ccccc1)c1c(OCCCN2CCC2)ccc2ccccc12` has what recorded IC50?
32.9

---

Catalogue of compounds with associated inhibition at 10 µM
assayDetails: Inhibition of homologous recombination in human CRMM-1 cells at 10 uM incubated for 12 hrs by real-time PCR analysis relative to control
Assay type: functional
Write the value in % as a bare number.

Answered cases to consult:
Item CCCN(C)CC(O)COc1ccccc1C(=O)CCc1ccccc1 (configuration not stated) has what recorded inhibition at 10 µM?
30.3

Item `CCCNCCCOc1ccccc1C(=O)CCc1ccccc1` has what recorded inhibition at 10 µM?
65

Item `CCCNCCCOc1ccccc1C(=O)CCCc1ccccc1` has what recorded inhibition at 10 µM?
71.6

Item `Cc1cncc(COc2ccc3ccccc3c2C(=O)CCCc2ccccc2)c1` has what recorded inhibition at 10 µM?
47.1

Item `CCC(C)(C)NCCCOc1ccc2ccccc2c1C(=O)CCCc1ccccc1` has what recorded inhibition at 10 µM?
44.6

Item CCCNCC(O)COc1ccccc1CCCc1ccccc1 (configuration not stated) has what recorded inhibition at 10 µM?
57

Consider now this further compound.
Item `CCC(=O)NCCCOc1ccc2ccccc2c1C(=O)CCCc1ccccc1` has what recorded inhibition at 10 µM?
35

---

assayDetails: Antiproliferative activity against human HL7702 cells assessed as cell growth inhibition incubated for 72 hrs by CCK8 assay
Type: toxicity, cell-based
conditionSet: HL7702 (L02) cells
Records here are stratified by IC50 at 72 h; strata: low bracket = under 10 µM, middle bracket = from 10 µM up to 30 µM, high bracket = 30 µM and over

Below are worked cases with known answers.
Category of `CC(C)(C)CNCCCOc1ccc2ccccc2c1C(=O)CCCc1ccccc1` , please.
middle bracket

Category of `CCCCCNCCCOc1ccccc1C(=O)CCCc1ccccc1` , please.
low bracket

Category of `O=C(CCCc1ccccc1)c1c(OCCCNC2CC2)ccc2ccccc12` , please.
high bracket

Category of `CCCNCCCOc1cc2c(cc1C(=O)CCCc1ccccc1)OCCO2` , please.
middle bracket

Category of `CCCOCC(=O)COc1ccccc1C(=O)CCc1ccccc1` , please.
high bracket

Others:
Category of `CC(C)(C)C(=O)NCCCOc1ccc2ccccc2c1C(=O)CCCc1ccccc1` , please.
high bracket

Category of CCCCCCCNCC(O)COc1ccccc1C(=O)CCc1ccccc1 (stereo not drawn) , please.
low bracket

Category of CCCNCC(O)COc1ccccc1C(=O)CCCc1ccccc1 (stereo not drawn) , please.
high bracket

Category of `O=C(CCCc1ccccc1)c1c(OCCCn2cccc2)ccc2ccccc12` , please.
high bracket

Category of C=C(CCc1ccccc1)c1ccccc1OCC(O)CNCCC (stereo not drawn) , please.
middle bracket

---

assayDetails: Antiproliferative activity against human HL7702 cells assessed as cell growth inhibition incubated for 72 hrs by CCK8 assay
Type: toxicity, cell-based
conditionSet: HL7702 (L02) cells
recordedMetric: log10(IC50 at 72 h) (log10 of the value in µM)
Please keep in mind that the values are log10 of IC50 at 72 h expressed in µM.

Answered cases to consult:
Item `CCCCCCCNCCCOc1ccccc1C(=O)CCCc1ccccc1` has what recorded log10(IC50 at 72 h)?
-0.15

Item CCCCCC(O)COc1ccccc1C(=O)CCc1ccccc1 (centres undefined) has what recorded log10(IC50 at 72 h)?
1.35

Item `CCCNCCCOc1cc2c(cc1C(=O)CCCc1ccccc1)OCO2` has what recorded log10(IC50 at 72 h)?
1.51

Item CCCN(C)CC(O)COc1ccccc1C(=O)CCc1ccccc1 (centres undefined) has what recorded log10(IC50 at 72 h)?
1.99

Item `O=C(CCCc1ccccc1)c1c(OCCCN2CCCC2)ccc2ccccc12` has what recorded log10(IC50 at 72 h)?
1.34

Others:
Item `O=C(CCCc1ccccc1)c1c(OCCCN2CCC2)ccc2ccccc12` has what recorded log10(IC50 at 72 h)?
1.84

Item `O=C(CCCc1ccccc1)c1c(OCCCN2CCNCC2)ccc2ccccc12` has what recorded log10(IC50 at 72 h)?
1.41

Item `CN1CCN(CCCOc2ccc3ccccc3c2C(=O)CCCc2ccccc2)CC1` has what recorded log10(IC50 at 72 h)?
1.02

Item `CCCNCCCOc1cc2ccccc2cc1C(=O)CCCc1ccccc1` has what recorded log10(IC50 at 72 h)?
1.08

Item CCCNCC(O)COc1cccc(C(=O)CCc2ccccc2)c1 (centres undefined) has what recorded log10(IC50 at 72 h)?
1.84

Item `CCCNCCCOc1ccccc1C(=O)CCc1ccccc1` has what recorded log10(IC50 at 72 h)?
1.81

---

assayDetails: Antiproliferative activity against human HL7702 cells assessed as cell growth inhibition incubated for 72 hrs by CCK8 assay
Format: toxicity, cell-based
conditionSet: HL7702 (L02) cells
Catalogue of compounds with associated IC50 at 72 h

Answered cases to consult:
Item `O=C(CC(F)(F)F)NCCCOc1ccc2ccccc2c1C(=O)CCCc1ccccc1` has what recorded IC50 at 72 h?
29.9 µM

Item `CCC(=O)NCCCOc1ccc2ccccc2c1C(=O)CCCc1ccccc1` has what recorded IC50 at 72 h?
29.5 µM

Consider now this further compound.
Item `CCCNCCCOc1cccc2cccc(C(=O)CCCc3ccccc3)c12` has what recorded IC50 at 72 h?
10.2 µM

---

assayDetails: Antiproliferative activity against human HL7702 cells assessed as cell growth inhibition incubated for 72 hrs by CCK8 assay
Type: toxicity, cell-based
conditionSet: HL7702 (L02) cells
Catalogue of compounds with associated IC50 at 72 h
Write the value in µM as a bare number.

Item `O=C(CCCc1ccccc1)c1c(OCCCN2CCSC2)ccc2ccccc12` has what recorded IC50 at 72 h?
51.5

Item `O=C(CCCc1ccccc1)c1c(OCc2cccnc2)ccc2ccccc12` has what recorded IC50 at 72 h?
64.9

Item `CCCNCCCOc1ccccc1C(=O)CCCc1ccccc1` has what recorded IC50 at 72 h?
32.9

Item `CCCCCCNCCCOc1ccccc1C(=O)CCCc1ccccc1` has what recorded IC50 at 72 h?
10.6

Item `CCCNCCCOc1c(C(=O)CCCc2ccccc2)ccc2ccccc12` has what recorded IC50 at 72 h?
28.4

Others:
Item CCCOCC(O)COc1ccccc1C(=O)CCc1ccccc1 (stereo not drawn) has what recorded IC50 at 72 h?
65

Item `CCCCNCCCOc1ccccc1C(=O)CCCc1ccccc1` has what recorded IC50 at 72 h?
3.7
